- assay-overview: in vitro
- assay-setup: PAMPA
- Description: Permeability of the compound by PAMPA
The threshold is 3 ×10⁻⁶ cm/s. Values of Papp beneath it are tagged criterion met; values meeting or exceeding it are tagged criterion not met.

Confirm or reject: Papp of `O=C(CCNCCCCNc1c2c(nc3ccccc13)CCC2)Nc1ccc2c(c1)C(=O)c1cccc3ccnc-2c13` lies strictly below 3 ×10⁻⁶ cm/s
criterion met

Dear reviewer, please state whether `O=C(CCNCCNc1c2c(nc3ccccc13)CCC2)Nc1ccc2c(c1)C(=O)c1cccc3ccnc-2c13` has Papp strictly beneath 3 ×10⁻⁶ cm/s.
criterion met

For this molecule, is Papp lower than 3 ×10⁻⁶ cm/s? `O=C(CNCCNc1c2c(nc3ccccc13)CCCC2)Nc1ccc2c(c1)C(=O)c1cccc3ccnc-2c13`
criterion not met

In plain terms, does `O=C(CCNCCCNc1c2c(nc3ccccc13)CCCC2)Nc1ccc2c(c1)C(=O)c1cccc3ccnc-2c13` come in under 3 ×10⁻⁶ cm/s for Papp?
criterion not met

Please state whether Papp is below 3 ×10⁻⁶ cm/s for `O=C(CNCCNc1c2c(nc3ccccc13)CCCCC2)Nc1ccc2c(c1)C(=O)c1cccc3ccnc-2c13`
criterion not met

Answer whether the molecule `O=C(CCNCCNc1c2c(nc3ccccc13)CCCC2)Nc1ccc2c(c1)C(=O)c1cccc3ccnc-2c13` has Papp strictly less than 3 ×10⁻⁶ cm/s
criterion met

Is the reported Papp for `O=C(CCNCCCNc1c2c(nc3ccccc13)CCC2)Nc1ccc2c(c1)C(=O)c1cccc3ccnc-2c13` strictly below 3 ×10⁻⁶ cm/s?
criterion not met

# strict comparison: is reported Papp < 3 ×10⁻⁶ cm/s? input = `O=C(CCNCCCCNc1c2c(nc3ccccc13)CCCCC2)Nc1ccc2c(c1)C(=O)c1cccc3ccnc-2c13`
criterion met

====

Assignment: determine reported pIC50 for the given compounds.
Just the number, please; pIC50 means minus log10 of the concentration in mol/L.

Tell me reported pIC50 for `O=C(CNCCNc1c2c(nc3ccccc13)CCCCC2)Nc1ccc2c(c1)C(=O)c1cccc3ccnc-2c13` , tested with Cholinesterase (Equus caballus, UniProt P81908).
Sequence (P81908 whole entry): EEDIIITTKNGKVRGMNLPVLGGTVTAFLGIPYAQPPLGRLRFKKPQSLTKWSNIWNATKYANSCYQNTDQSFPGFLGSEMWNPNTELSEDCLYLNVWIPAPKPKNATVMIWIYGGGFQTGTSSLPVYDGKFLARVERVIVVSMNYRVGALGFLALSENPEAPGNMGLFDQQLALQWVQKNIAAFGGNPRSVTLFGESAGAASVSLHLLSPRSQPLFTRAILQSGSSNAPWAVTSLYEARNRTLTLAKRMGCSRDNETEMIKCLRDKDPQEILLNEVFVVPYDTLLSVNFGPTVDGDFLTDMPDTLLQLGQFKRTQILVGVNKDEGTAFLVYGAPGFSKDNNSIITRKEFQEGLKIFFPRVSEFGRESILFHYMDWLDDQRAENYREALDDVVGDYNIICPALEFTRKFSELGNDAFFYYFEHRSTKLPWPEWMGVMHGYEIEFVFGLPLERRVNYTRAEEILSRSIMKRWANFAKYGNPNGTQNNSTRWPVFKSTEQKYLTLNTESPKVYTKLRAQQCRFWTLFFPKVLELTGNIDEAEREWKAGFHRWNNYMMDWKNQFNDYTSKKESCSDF
6.68

Find the measured pIC50: item `O=C(CNCCNc1c2c(nc3ccccc13)CCCC2)Nc1ccc2c(c1)C(=O)c1cccc3ccnc-2c13` , target or system Cholinesterase (Equus caballus, UniProt P81908).
6.36

State its pIC50 on Cholinesterase (Equus caballus, UniProt P81908): `O=C(CCNCCCCNc1c2c(nc3ccccc13)CCCCC2)Nc1ccc2c(c1)C(=O)c1cccc3ccnc-2c13`
6.82

Tell me reported pIC50 for `O=C(CCNCCCCNc1c2c(nc3ccccc13)CCC2)Nc1ccc2c(c1)C(=O)c1cccc3ccnc-2c13` , tested with Cholinesterase (Equus caballus, UniProt P81908).
6.70

====

- assay-system: Acetylcholinesterase (Electrophorus electricus)
With a cut-off of 300 nM, any IC50 strictly below it is called 1.0; any IC50 meeting it or above is called 0.0.

Strictly below 300 nM: is that where IC50 of `O=C(CCNCCCNc1c2c(nc3ccccc13)CCC2)Nc1ccc2c(c1)C(=O)c1cccc3ccnc-2c13` sits?
0.0

Just wondering, is IC50 of `O=C(CCNCCCCNc1c2c(nc3ccccc13)CCCC2)Nc1ccc2c(c1)C(=O)c1cccc3ccnc-2c13` below 300 nM?
1.0

Consider the molecule `O=C(CNCCNc1c2c(nc3ccccc13)CCC2)Nc1ccc2c(c1)C(=O)c1cccc3ccnc-2c13` . Is its IC50 strictly less than 300 nM?
0.0

Criterion: IC50 strictly below 300 nM. Is it met by `O=C(CCNCCCNc1c2c(nc3ccccc13)CCCC2)Nc1ccc2c(c1)C(=O)c1cccc3ccnc-2c13` ?
1.0

Please determine if `O=C(CCNCCNc1c2c(nc3ccccc13)CCCC2)Nc1ccc2c(c1)C(=O)c1cccc3ccnc-2c13` is below 300 nM in terms of IC50.
1.0

Field: below-cutoff. Rule: recorded IC50 strictly less than 300 nM. Subject: `O=C(CCNCCCNc1c2c(nc3ccccc13)CCCCC2)Nc1ccc2c(c1)C(=O)c1cccc3ccnc-2c13`
1.0

Please indicate whether the reported IC50 of `O=C(CNCCNc1c2c(nc3ccccc13)CCCCC2)Nc1ccc2c(c1)C(=O)c1cccc3ccnc-2c13` is strictly below 300 nM.
1.0

Is IC50 of `O=C(CCNCCNc1c2c(nc3ccccc13)CCCCC2)Nc1ccc2c(c1)C(=O)c1cccc3ccnc-2c13` strictly below 300 nM?
1.0

====

The reader will find IC50 measurements below, all made with Acetylcholinesterase (Electrophorus electricus, UniProt O42275).
Sequence (O42275 whole entry): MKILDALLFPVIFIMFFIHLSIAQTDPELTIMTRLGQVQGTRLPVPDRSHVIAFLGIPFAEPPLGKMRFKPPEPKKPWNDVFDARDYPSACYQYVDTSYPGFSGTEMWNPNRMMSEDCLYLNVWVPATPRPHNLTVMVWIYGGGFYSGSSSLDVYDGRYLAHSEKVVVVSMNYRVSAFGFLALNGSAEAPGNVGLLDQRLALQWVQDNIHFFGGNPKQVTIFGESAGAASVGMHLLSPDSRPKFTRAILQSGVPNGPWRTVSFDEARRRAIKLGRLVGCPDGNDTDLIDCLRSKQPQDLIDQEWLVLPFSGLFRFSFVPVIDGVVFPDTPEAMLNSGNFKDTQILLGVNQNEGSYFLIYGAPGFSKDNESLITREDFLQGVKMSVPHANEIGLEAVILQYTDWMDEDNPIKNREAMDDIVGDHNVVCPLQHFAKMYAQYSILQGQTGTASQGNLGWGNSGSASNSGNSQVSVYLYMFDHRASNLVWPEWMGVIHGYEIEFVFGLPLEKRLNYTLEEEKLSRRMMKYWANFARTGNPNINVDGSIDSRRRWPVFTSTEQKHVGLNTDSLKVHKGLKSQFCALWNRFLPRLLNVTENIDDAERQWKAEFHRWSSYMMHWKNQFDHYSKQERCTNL
Hi! Could you send only the number? It should be in nM, unit omitted.

Reported IC50 for `O=C(CNCCNc1c2c(nc3ccccc13)CCCC2)Nc1ccc2c(c1)C(=O)c1cccc3ccnc-2c13` : what is it?
41

So what's the measured IC50 for this one? `O=C(CCNCCNc1c2c(nc3ccccc13)CCC2)Nc1ccc2c(c1)C(=O)c1cccc3ccnc-2c13`
422

What does the record list as IC50 for `O=C(CCNCCCCNc1c2c(nc3ccccc13)CCC2)Nc1ccc2c(c1)C(=O)c1cccc3ccnc-2c13` ?
910

Entry `O=C(CCNCCCCNc1c2c(nc3ccccc13)CCCCC2)Nc1ccc2c(c1)C(=O)c1cccc3ccnc-2c13` has what IC50?
745

====

What Papp was measured for each of the following?
- assay-overview: in vitro
- assay-setup: PAMPA
State the value with its unit after it.

I'd like to know its Papp. The compound in question is `O=C(CNCCNc1c2c(nc3ccccc13)CCC2)Nc1ccc2c(c1)C(=O)c1cccc3ccnc-2c13`
4.6 ×10⁻⁶ cm/s

Value lookup for Papp; key = `O=C(CCNCCCNc1c2c(nc3ccccc13)CCCCC2)Nc1ccc2c(c1)C(=O)c1cccc3ccnc-2c13`
8.9 ×10⁻⁶ cm/s

I am curious: what Papp value has been reported for `O=C(CCNCCCCNc1c2c(nc3ccccc13)CCCC2)Nc1ccc2c(c1)C(=O)c1cccc3ccnc-2c13` ?
2.1 ×10⁻⁶ cm/s

Endpoint output: Papp of `O=C(CCNCCNc1c2c(nc3ccccc13)CCCCC2)Nc1ccc2c(c1)C(=O)c1cccc3ccnc-2c13` . Value?
7.9 ×10⁻⁶ cm/s

Cited source: ChEMBL document CHEMBL1828584
